# experimental-system: full-length beta-Catenin (Uniprot ID P35222) (Homo sapiens)
# Construct: 10 nM full-length beta-Catenin (Uniprot ID P35222)
# Sequence (P35222 whole entry): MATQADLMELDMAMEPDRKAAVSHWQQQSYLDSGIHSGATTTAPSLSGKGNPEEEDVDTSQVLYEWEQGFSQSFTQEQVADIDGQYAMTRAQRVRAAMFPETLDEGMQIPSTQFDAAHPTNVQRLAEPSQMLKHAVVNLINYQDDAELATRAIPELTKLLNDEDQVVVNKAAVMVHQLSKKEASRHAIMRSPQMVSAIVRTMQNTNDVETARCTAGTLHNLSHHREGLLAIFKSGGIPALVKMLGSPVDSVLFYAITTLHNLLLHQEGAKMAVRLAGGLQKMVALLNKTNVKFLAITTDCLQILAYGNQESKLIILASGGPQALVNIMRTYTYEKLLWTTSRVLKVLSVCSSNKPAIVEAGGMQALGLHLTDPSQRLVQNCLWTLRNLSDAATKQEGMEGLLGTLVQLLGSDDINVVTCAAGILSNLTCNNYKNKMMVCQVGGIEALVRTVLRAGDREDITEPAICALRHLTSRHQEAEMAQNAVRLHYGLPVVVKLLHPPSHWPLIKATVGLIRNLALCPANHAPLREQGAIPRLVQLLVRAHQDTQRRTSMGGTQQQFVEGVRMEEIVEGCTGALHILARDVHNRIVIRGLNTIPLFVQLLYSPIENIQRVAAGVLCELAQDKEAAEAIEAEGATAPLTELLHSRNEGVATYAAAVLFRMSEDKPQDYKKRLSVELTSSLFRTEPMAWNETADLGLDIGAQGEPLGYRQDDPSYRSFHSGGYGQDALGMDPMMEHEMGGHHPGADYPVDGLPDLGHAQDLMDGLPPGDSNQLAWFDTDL
# experimental-protocol: Fluorescence polarization IC50 (beta-catenin / 5FAM-TCF4 10-53 competition)
# Type: binding
# condition-description: fluorescence polarization; read-out: beta-Catenin FP IC50
measured-parameter: pIC50
pIC50 (log units): -log10 of the concentration in mol/L.

molecule="CC(=O)N1CCC[C@]12CC=CCCCC1(CCCC=CCCCCCC[C@@](C)(C(=O)N[C@@H](Cc3ccccc3)C(=O)N[C@@H](Cc3csc4ccccc34)C(=O)N[C@@H](CCC(N)=O)C(N)=O)NC(=O)[C@H](CC(N)=O)NC(=O)[C@H](Cc3ccccc3)NC(=O)[C@H](C)NC(=O)[C@H](C)NC(=O)[C@H](CC(=O)O)NC(=O)[C@H](CC(=O)O)NC1=O)NC(=O)[C@H](CCC(C)C)NC(=O)[C@H](CC(=O)O)NC2=O (some centres unmarked) [I-548]" reported_measurement=7.77
molecule="CC(=O)N1CCC[C@]12CC=CCCCC1(CCCC=CCCCOC(=O)N3CC[C@@](C(=O)N[C@@H](Cc4ccccc4C(F)(F)F)C(=O)N[C@@H](Cc4ccc(F)c(Br)c4)C(=O)N[C@@H](C)C(N)=O)(C3)NC(=O)[C@H](CC(C)C)NC(=O)[C@H](Cc3ccccc3)NC(=O)[C@H](C)NC(=O)[C@H](CCC(N)=O)NC(=O)[C@H](Cc3cccc(C(=O)O)c3)NC(=O)[C@H](CC(=O)O)NC1=O)NC(=O)[C@H](CC(C)(C)C)NC(=O)[C@H](CC(=O)O)NC2=O (some centres unmarked) [I-2290]" reported_measurement=7.85
molecule="CC(=O)N1CCC[C@]12CC=CCCCC1(CCCC=CCCCOC(=O)N3CC[C@@](C(=O)N[C@@H](Cc4ccsc4)C(=O)N[C@@H](Cc4csc5ccccc45)C(=O)N[C@@H](Cc4c[nH]cn4)C(N)=O)(C3)NC(=O)[C@H](CC(N)=O)NC(=O)[C@H](Cc3ccccc3)NC(=O)[C@H](C)NC(=O)[C@H](C)NC(=O)[C@H](CC(=O)O)NC(=O)[C@H](CC(=O)O)NC1=O)NC(=O)[C@H](CC(C)C)NC(=O)[C@H](CC(=O)O)NC2=O (some centres unmarked) [I-696]" reported_measurement=8.30

Ask | Consider the molecule CNC(=O)C[C@@H]1NC(=O)[C@H](Cc2ccccc2)NC(=O)[C@H](C)NC(=O)C(C)(C)NC(=O)[C@H]([C@@H](C)O)NC(=O)[C@H](CC(N)=O)NC(=O)C2(CCCC=CCCCOC(=O)N3CC[C@@](C(=O)N[C@@H](Cc4ccsc4)C(=O)N[C@@H](Cc4csc5ccccc45)C(=O)N[C@@H](CC(N)=O)C(N)=O)(C3)NC1=O)CCCC=CC[C@]1(CCCN1C(C)=O)C(=O)N[C@@H](CC(=O)O)C(=O)N[C@@H](CC(C)(C)C)C(=O)N2 (some centres unmarked) [I-2497] . State its measured pIC50.
Reply | 6.98

Ask | Using known records, supply pIC50 for CC(=O)N1CCC[C@]12CC=CCCCC1(CCCC=CCCCOC(=O)N3CC[C@@](C(=O)N[C@@H](Cc4ccsc4)C(=O)N[C@@H](Cc4csc5ccccc45)C(=O)N[C@@H](CC(N)=O)C(N)=O)(C3)NC(=O)[C@H](CC(N)=O)NC(=O)[C@H](Cc3ccccc3)NC(=O)[C@H](C)NC(=O)[C@H](C)NC(=O)[C@H]([C@@H](C)O)NC(=O)[C@H](CC(N)=O)NC1=O)NC(=O)[C@H](CC(C)(C)C)NC(=O)[C@H](CC(=O)O)NC2=O (some centres unmarked) [I-1746]
Reply | 6.63
